# protocol: qHTS Assay for Iinhibitors of HIV-1 Budding by Blocking the Interaction of PTAP/TSG101: Hit Validation in Viral Budding Asaay
# condition: HeLa pNL4-3 HIV-1 budding, supernatant RT activity, 18 h; at 50 µM (top of the series)
Active and inactive are the calls of the source.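 The calls were made as follows: active = inhibition of at least 50% at 50 µM, meaning an activity change of -50% or lower; inconclusive = inhibition above 30% but under 50% at 50 µM; inactive = inhibition of 30% or less at 50 µM.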
Listing of entries alongside the reported activity change, negative = inhibition.

Worked examples, 3 compounds total:
[
  {
    "compound": "COc1cccc2c1C(=O)c1c(O)c3c(c(O)c1C2=O)CC(O)(C(=O)CO)CC3OC1CC(N(C)C)C(O)C(C)O1 (centres undefined)",
    "endpointName": "activity change, negative = inhibition",
    "valueMeasured": "-84% (active)"
  },
  {
    "compound": "COc1cccc(C(=O)c2sc3nc(-c4ccccc4)cc(C(F)(F)F)c3c2N)c1",
    "endpointName": "activity change, negative = inhibition",
    "valueMeasured": "-91.8% (active)"
  },
  {
    "compound": "O/C=c1\\ccc2cccc3nc(C(F)(F)F)nc1c23",
    "endpointName": "activity change, negative = inhibition",
    "valueMeasured": "-89.5% (active)"
  }
]

Next compound, please.
What activity change, negative = inhibition value was documented for this compound, "CN1CCc2c(sc(NC(=O)CSc3ccc(F)cc3)c2-c2nc3ccccc3s2)C1" ? -59.8% (active)
